- subject.of.test: T1, human Ang-2 (human, UniProt O15123)
- T1 chain: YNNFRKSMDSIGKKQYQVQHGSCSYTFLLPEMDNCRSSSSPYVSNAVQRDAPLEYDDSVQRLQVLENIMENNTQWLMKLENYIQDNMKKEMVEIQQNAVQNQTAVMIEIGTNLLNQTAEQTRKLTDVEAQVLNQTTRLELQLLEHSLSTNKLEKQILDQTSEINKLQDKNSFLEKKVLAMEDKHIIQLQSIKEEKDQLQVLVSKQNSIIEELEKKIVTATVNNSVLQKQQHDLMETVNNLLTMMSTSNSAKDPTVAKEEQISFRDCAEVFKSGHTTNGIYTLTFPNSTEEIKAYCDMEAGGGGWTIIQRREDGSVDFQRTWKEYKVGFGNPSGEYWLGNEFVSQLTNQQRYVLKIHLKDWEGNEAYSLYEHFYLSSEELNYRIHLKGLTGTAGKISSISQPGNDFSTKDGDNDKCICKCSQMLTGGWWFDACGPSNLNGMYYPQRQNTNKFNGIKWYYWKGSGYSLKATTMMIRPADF
- assay.summary: competition ELISA vs Tie-2
pIC50: −log10 of the molar value. Primed or numbered codes have the meaning given here. Where no end group is shown, it is not given here. [ ]: non-standard residue; d: D form. Fc(4) = non-antigen-binding fragment of an antibody (from proteolytic digestion of a whole antibody); Fc = immunoglobulin Fc domain fused to the peptide (peptibody); Fc(7) = Fc domain, peptide fused N- or C-terminal to it
reported.property: pIC50

Below are worked cases with known answers.
M[Fc]GGGGGAQWYEQDACEWDPWTCEHMAEVLE (not fully specified; cysteine pairing not given here) [Con4-4 (C)] = 9.92
M[Fc(7)]GGGGGAQVVQVGMCQWDPWTCKHMRLQLE (not fully specified (bridges); cysteine pairing not given here) [Con4-19 (C)] = 8.24
M[Fc(4)]GGGGGAQHGQNMECEWDPWTCEHMFRYLE (not fully specified; cysteine pairing not given here) [Con4-50 (C)] = 9.42
M[Fc]GGGGGAQKSTQDDCDWDPWTCEHMVGPLE (not fully specified; cysteine pairing not given here) [Con4-32 (C)] = 9.12
M[Fc]GGGGGAQTNIQEECEWDPWTCDHMPGKLE (not fully specified; cysteine pairing not given here) [Con4-40 (C)] = 10.00

(1) M[Fc(4)]GGGGGAQPIRQEECDWDPWTCEHMWEVLE (not fully specified; cysteine pairing not given here) [Con4-44 (C)]
(2) M[Fc(4)]GGGGGAQWAQQEECAWDPWTCDHMVGLLE (not fully specified; cysteine pairing not given here) [Con4-45 (C)]
(3) M[Fc(7)]GGGGGAQQWSWPPCEWDPWTCQTVWPSLE (not fully specified (bridges); cysteine pairing not given here) [Con4-15 (C)]
Request: Arrange the 3 entries by pIC50 so the values rise. A ranking is expressed here by listing the labels in the requested order.
Result: 3, 2, 1
(3: 7.82, 2: 9.32, 1: 10.05)

Values were extracted from patent US7205275.
